Listed here: items and their measured pIC50.
test system: HCC827; assay: cells; details: Homo sapiens, HCC827, 72 h
Description: Antiproliferative activity against human HCC827 cells harboring EGFR L858R mutant after 72 hrs by CCK8 assay
pIC50: −log10 of the molar value.

SMILES_REPR: CCOCCOc1cc2ncnc(Nc3ccc(F)c(Cl)c3)c2cc1NC(=O)/C=C/C(=O)OCC
pIC50: 9.01

SMILES_REPR: CCOCCOc1cc2ncnc(Nc3ccc(NCCS(C)(=O)=O)c(Cl)c3)c2cc1NC(=O)/C=C/CN(C)C
pIC50: 9.28

SMILES_REPR: CC(C)OCCOc1cc2ncnc(Nc3ccc(F)c(Cl)c3)c2cc1NC(=O)/C=C/CN(C)C
pIC50: 9.26

SMILES_REPR: CCCOCCOc1cc2ncnc(Nc3ccc(F)c(Cl)c3)c2cc1NC(=O)/C=C/CN(C)C
pIC50: 9.26

SMILES_REPR: CCOCCOc1cc2ncnc(Nc3ccc(F)c(Cl)c3)c2cc1NC(=O)/C=C\C#N
pIC50: 8.25

SMILES_REPR: CCOCCOc1ccc(Nc2ncnc3cc(OCCOCC)c(NC(=O)/C=C/CN(C)C)cc23)cc1Cl
pIC50: 9.47

SMILES_REPR: CCOCCOc1cc2ncnc(Nc3ccc(F)c(Cl)c3)c2cc1NC(=O)/C=C/CN(C)C
pIC50: 9.51

SMILES_REPR: COCCCOc1cc2ncnc(Nc3ccc(F)c(Cl)c3)c2cc1NC(=O)/C=C/CN(C)C
pIC50: 9.54

SMILES_REPR: C=C(F)C(=O)Nc1cc2c(Nc3ccc(F)c(Cl)c3)ncnc2cc1OCCOCC
pIC50: 9.28

---

system: MDA-MB-453; assay: Antiproliferative activity against human MDA-MB-453 cells after 72 hrs by CCK8 assay; type: functional, cell-based; conditions: MDA-MB-453, 72 h
Measured log10 IC50, listed per entry.
PROPERTY: log10 IC50 (log10 of the value in nM)

SMILES_REPR: CCOCCOc1cc2ncnc(Nc3ccc(OCC(F)(F)F)c(Cl)c3)c2cc1NC(=O)/C=C/CN(C)C
log10 IC50: 0.41
//
SMILES_REPR: CCOCCOc1ccc(Nc2ncnc3cc(OCCOCC)c(NC(=O)/C=C/CN(C)C)cc23)cc1Cl
log10 IC50: 0.40
//
SMILES_REPR: C#CC(=O)Nc1cc2c(Nc3ccc(F)c(Cl)c3)ncnc2cc1OCCOCC
log10 IC50: 0.53
//
SMILES_REPR: CCOCCOc1cc2ncnc(Nc3ccc(F)c(Cl)c3)c2cc1NC(=O)/C=C/C(F)(F)F
log10 IC50: 1.26
//
SMILES_REPR: C=CS(=O)(=O)Nc1cc2c(Nc3ccc(F)c(Cl)c3)ncnc2cc1OCCOCC
log10 IC50: 2.11
//
SMILES_REPR: C=C(F)C(=O)Nc1cc2c(Nc3ccc(F)c(Cl)c3)ncnc2cc1OCCOCC
log10 IC50: 1.76
//
SMILES_REPR: CCOCCOc1cc2ncnc(Nc3ccc(OCCOC)c(Cl)c3)c2cc1NC(=O)/C=C/CN(C)C
log10 IC50: 0.22

---

system: MDA-MB-453; test: Antiproliferative activity against human MDA-MB-453 cells after 72 hrs by CCK8 assay; assay type: functional, cell-based; conditions: MDA-MB-453, 72 h
# key: entry, value: log10 IC50
PROPERTY: log10 IC50 (log10 of the value in nM)

SMILES_REPR: C=CC(=O)Nc1cc2c(Nc3ccc(F)c(Cl)c3)ncnc2cc1OCCOCC
TARGET_ENTITY: MDA-MB-453
RECORDED_NUMBER: 0.75

SMILES_REPR: CCOCCOc1cc2ncnc(Nc3ccc(F)c(Cl)c3)c2cc1NC(=O)/C=C/C(=O)OCC
TARGET_ENTITY: MDA-MB-453
RECORDED_NUMBER: 1.33

SMILES_REPR: CCOCCOc1cc2ncnc(Nc3ccc(F)c(Cl)c3)c2cc1NC(=O)/C=C\C#N
TARGET_ENTITY: MDA-MB-453
RECORDED_NUMBER: -0.17

SMILES_REPR: CCOCCOc1cc2ncnc(Nc3ccc(F)c(Cl)c3)c2cc1NC(=O)/C=C/Br
TARGET_ENTITY: MDA-MB-453
RECORDED_NUMBER: 0.60

SMILES_REPR: CCOCCOc1cc2ncnc(Nc3ccc(NCCS(C)(=O)=O)c(Cl)c3)c2cc1NC(=O)/C=C/CN(C)C
TARGET_ENTITY: MDA-MB-453
RECORDED_NUMBER: 1.10

SMILES_REPR: C=C(Cl)C(=O)Nc1cc2c(Nc3ccc(F)c(Cl)c3)ncnc2cc1OCCOCC
TARGET_ENTITY: MDA-MB-453
RECORDED_NUMBER: 0.57

SMILES_REPR: CCOCCOc1cc2ncnc(Nc3ccc(F)c(Cl)c3)c2cc1NC(=O)/C=C/CN(C)C
TARGET_ENTITY: MDA-MB-453
RECORDED_NUMBER: -0.21

SMILES_REPR: CCOCCOc1cc2ncnc(Nc3ccc(F)c(Cl)c3)c2cc1NC(=O)/C=C/Cl
TARGET_ENTITY: MDA-MB-453
RECORDED_NUMBER: 1.17

SMILES_REPR: C=C(Br)C(=O)Nc1cc2c(Nc3ccc(F)c(Cl)c3)ncnc2cc1OCCOCC
TARGET_ENTITY: MDA-MB-453
RECORDED_NUMBER: 1.18

Origin of measurements: ChEMBL document CHEMBL4330113
